molecular target: T1, Peptide-2 (human, phosphothreonine 212, phosphothreonine 217 (tau 2N4R numbering); short chain biotin (SCBiot) and dPEG4 at the N-terminus; amide at the C-terminus); test: SPR ProteOn, mAb captured, peptide as analyte; range of n=2
T1 construct: also called pT212/pT217-tau peptide (Peptide-2)
T1 sequence (peptide, as listed by the source): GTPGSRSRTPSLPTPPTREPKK
Give measured koff for each item. Keep answers brief.
Just the number in s⁻¹, nothing appended.

Look up koff for this binder: B282 (antibody, human IgG1, V domains shown, Humanized (HFA) PT3 variant, human IgG1/kappa; also called VH93/VL77) VH: QVQLVESGGGLVKPGGSLRLSCAASGFTFSSYAMSWIRQAPGKGLEWVSSISKGGNTYYADSVKGRFTISRDNAKNSLYLQMNSLRAEDTAVYYCARGWGDYGWFAYWGQVTLVTVSS VL: DIQMTQSPSSLSASVGDRVTITCKASQDINRYLNWFQQKPGKAPKSLIYRANRLLDGVPSRFSGSGSGTDFTLTISSLQPEDFATYYCLQYDEFPLTFGQGTKLEIK
0.00124

Also B296 (antibody, human IgG1, kappa, V domains shown, Humanized PT3, human IgG1/kappa; also called VH92/VL77; HFA-PT3) VH: QVQLVESGGGVVQPGRSLRLSCAASGFTFSSYAMSWVRQAPGKGLEWVASISKGGNTYYADSVKGRFTISRDNSKNTLYLQMNSLRAEDTAVYYCARGWGDYGWFAYWGQVTLVTVSS VL: DIQMTQSPSSLSASVGDRVTITCKASQDINRYLNWFQQKPGKAPKSLIYRANRLLDGVPSRFSGSGSGTDFTLTISSLQPEDFATYYCLQYDEFPLTFGQGTKLEIKR ?
0.000788

Also B252 (antibody, human IgG1, V domains shown, Humanized (HFA) PT3 variant, human IgG1/kappa; also called VH93/VL80) VH: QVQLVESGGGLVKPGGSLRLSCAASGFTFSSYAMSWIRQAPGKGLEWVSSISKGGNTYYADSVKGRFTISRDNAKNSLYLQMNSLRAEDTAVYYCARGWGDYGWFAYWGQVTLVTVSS VL: DIVMTQTPLSSPVTLGQPASISCKASQDINRYLNWLQQRPGQPPRLLIYRANRLLDGVPDRFSGSGAGTDFTLKISRVEAEDVGVYYCLQYDEFPLTFGQGTKLEIK ?
0.000856

Also B280 (antibody, human IgG1, V domains shown, Humanized (HFA) PT3 variant, human IgG1/kappa; also called VH91/VL80) VH: EVQLLESGGGLVQPGGSLRLSCAASGFTFSSYAMSWVRQAPGKGLEWVSSISKGGNTYYADSVKGRFTISRDNSKNTLYLQMNSLRAEDTAVYYCAKGWGDYGWFAYWGQVTLVTVSS VL: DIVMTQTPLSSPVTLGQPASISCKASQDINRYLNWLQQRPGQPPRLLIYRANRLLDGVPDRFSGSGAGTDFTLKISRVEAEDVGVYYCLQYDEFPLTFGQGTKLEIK ?
0.00246
